Answer each item with its documented TGI.
system: A549 NSCLC; test: NCI tumour cell line growth inhibition, 48 h

NC1=Nc2ccccc2Sc2nncn21	> 100 µM
CCCc1nn(C)c2c(=O)[nH]c(-c3cc(S(=O)(=O)N4CCN(C)CC4)ccc3OCC)nc12	> 100 µM
COc1cc2nc(N3CCCN(C)CC3)nc(NC3CCN(Cc4ccccc4)CC3)c2cc1OC	10.2 µM
Cc1nc2c(c(N3CCN(C)CC3)n1)Cc1ccccc1-2	> 100 µM
Nn1c(CCCCCCCCc2nnc(-c3c(O)ccc4ccccc34)n2N)nnc1-c1c(O)ccc2ccccc12	> 100 µM

// for each compound in input: emit TGI
1. O=C1c2ccccc2N(O)C1(c1ccccc1)C1CCCC=C1N1CCOCC1 (stereo not given)
2. COC(NC(=O)Nc1ccc(C)cc1)(C(F)(F)F)C(F)(F)F

Reply:
["> 100 µM", "> 100 µM"]
